Read-out: Glutathione S-Transferase (GSTA2), GSTA2 (gene 2939)
Assay: LTEA_HepaRG_GSTA2: Life Technologies and Expression Analysis (LTEA) Assay for Glutathione S-Transferase (GSTA2) using HepaRG (AID 2283497)
Details: mRNA level, 48 h; actives raise or lower the signal
The source made the active and inactive calls. The calls were made as follows: active = hit-call score of the fitted dose curve at least 0.9, where 1 is the maximum; inactive = score below 0.9.
# output must be one of yes (active), no (inactive)

[Q] Dear colleague, could you share the recorded outcome for `ClC1=C(Cl)C(Cl)(Cl)C(Cl)=C1Cl` when you have a moment?
[A] no

[Q] Dear colleague, could you share the recorded outcome for `CC(C)CCCCCCOC(=O)CCCCC(=O)OCCCCCCC(C)C` when you have a moment?
[A] no

[Q] Dear colleague, could you share the recorded outcome for `CC[C@H](c1ccc(O)cc1)[C@@H](CC)c1ccc(O)cc1` when you have a moment?
[A] yes

[Q] Dear colleague, could you share the recorded outcome for OC1CCC(C2CCCCC2)CC1 (stereo unspecified) when you have a moment?
[A] no

[Q] Dear colleague, could you share the recorded outcome for COCC(C)OCC(C)O (stereo unspecified) when you have a moment?
[A] no

[Q] Dear colleague, could you share the recorded outcome for `CC(C)(C)c1ccc(O)c(C(C)(C)C)c1` when you have a moment?
[A] no

[Q] Dear colleague, could you share the recorded outcome for `OC1CCCCC1` when you have a moment?
[A] no

[Q] Dear colleague, could you share the recorded outcome for `CC(=O)CC(C)(C)O` when you have a moment?
[A] no

[Q] Dear colleague, could you share the recorded outcome for `CCCCCCC(=O)O` when you have a moment?
[A] no

[Q] Dear colleague, could you share the recorded outcome for `OCCC(F)(F)C(F)(F)C(F)(F)C(F)(F)C(F)(F)C(F)(F)C(F)(F)C(F)(F)F` when you have a moment?
[A] no

[Q] Dear colleague, could you share the recorded outcome for `CC(C)(C)c1cc(C(C)(C)C)c(O)c(C(C)(C)C)c1` when you have a moment?
[A] no

[Q] Dear colleague, could you share the recorded outcome for `O=[N+]([O-])c1ccc(O)cc1` when you have a moment?
[A] no

[Q] Dear colleague, could you share the recorded outcome for `CCCOC(=O)c1ccc(O)cc1` when you have a moment?
[A] no

[Q] Dear colleague, could you share the recorded outcome for `COC(=O)CCCCC(=O)OC` when you have a moment?
[A] no

[Q] Dear colleague, could you share the recorded outcome for `CC(=O)NC1(c2cccc(F)c2)CCN(CC[C@@]2(c3ccc(Cl)c(Cl)c3)CN(c3ccccc3)C(=O)CO2)CC1` when you have a moment?
[A] yes

[Q] Dear colleague, could you share the recorded outcome for `CN1CCC[C@H]1c1cccnc1` when you have a moment?
[A] no

Data provenance is PubChem BioAssay (EPA / NIEHS).
